test system: MRSA COL (MB5393); assay: TarO Inhibitor/β-Lactam Synergy Assay (growth, OD600); type: cell-based, Staphylococcus aureus; details: in combination with 8 μg/mL dicloxacillin (DCX)
Binning rule for recorded MITC95 TarO inhibitor + 8 μg/mL DCX; Bacteria: SA_MB5393: low bracket: < 2 µM; middle bracket: ≥ 2 µM and < 8 µM; high bracket: ≥ 8 µM

In plain terms, what class is C[C@H]1[C@@H](c2cc(C(F)(F)F)cc(C(F)(F)F)c2)OC(=O)N1C(=O)CCc1cccc2ccncc12 ? low bracket

In plain terms, what class is C[C@H]1[C@@H](c2cc(F)cc(C(F)(F)F)c2)OC(=O)N1C(=O)NCc1cccc2cn[nH]c12 ? high bracket

In plain terms, what class is O=C(NCc1cccc2cncnc12)N1C(=O)O[C@H](c2cc(C(F)(F)F)cc(C(F)(F)F)c2)[C@@H]1CO ? low bracket

In plain terms, what class is COc1ccccc1CNC(=O)N1C(=O)O[C@H](c2cc(F)cc(C(F)(F)F)c2)[C@@H]1C ? low bracket

In plain terms, what class is C[C@H]1[C@@H](c2cc(C(F)(F)F)ccn2)OC(=O)N1C(=O)CCc1cncc2ccccc12 ? high bracket

In plain terms, what class is C[C@H]1[C@@H](c2cc(F)cc(C(F)(F)F)c2)OC(=O)N1C(=O)NCc1cccc2c1C(=O)NC2 ? high bracket

In plain terms, what class is Cc1cccc(OCC(=O)N2C(=O)O[C@H](c3cccc(C(F)(F)F)c3)[C@@H]2C)c1C ? high bracket

In plain terms, what class is C[C@H]1[C@@H](c2cc(F)cc(C(F)(F)F)c2)OC(=O)N1C(=O)CCc1cncc2ccccc12 ? low bracket

In plain terms, what class is C[C@H]1[C@@H](c2cc(C(F)(F)F)cc(C(F)(F)F)c2)OC(=O)N1C(=O)NCc1cccnc1N1CCOCC1 ? high bracket

In plain terms, what class is C[C@H]1[C@@H](c2cc(C(F)(F)F)cc(C(F)(F)F)c2)OC(=O)N1C(=O)NCc1nccc2ccoc12 ? middle bracket

In plain terms, what class is C[C@H]1[C@@H](c2cc(F)cc(C(F)(F)F)c2)OC(=O)N1C(=O)NCc1ccccc1C(F)(F)F ? low bracket

In plain terms, what class is C[C@H]1[C@@H](c2cc(F)cc(C(F)(F)F)c2)OC(=O)N1C(=O)NCc1ccnc2ccccc12 ? middle bracket

In plain terms, what class is C[C@H]1[C@@H](c2cc(N3CCC(F)(F)C3)cc(C(F)(F)F)c2)OC(=O)N1C(=O)NCc1cccc2cncnc12 ? middle bracket

In plain terms, what class is C[C@H]1[C@@H](c2cc(Cl)cc(C(F)(F)F)c2)OC(=O)N1C(=O)CCc1cccc2ccccc12 ? low bracket

In plain terms, what class is O=C(CCc1cncc2ccccc12)N1C[C@H](c2cc(C(F)(F)F)cc(C(F)(F)F)c2)OC1=O ? high bracket

In plain terms, what class is Cc1nn(C)c(C)c1CNC(=O)N1C(=O)O[C@H](c2cc(F)cc(C(F)(F)F)c2)[C@@H]1C ? middle bracket

In plain terms, what class is COc1cccc([C@H]2OC(=O)N(C(=O)CCc3cncc4ccccc34)[C@H]2C)c1 ? high bracket

In plain terms, what class is COc1cc([C@H]2OC(=O)N(C(=O)NCc3cncc4cccnc34)C[C@H]2C)cc(C(F)(F)F)c1 ? high bracket

In plain terms, what class is Cc1ccc2c(n1)N(CCC(=O)N1C(=O)O[C@H](c3cc(F)cc(C(F)(F)F)c3)[C@@H]1C)CCO2 ? middle bracket

In plain terms, what class is C[C@H]1[C@@H](c2cc(C(F)(F)F)cc(C(F)(F)F)c2)OC(=O)N1C(=O)CCc1cncc2ccccc12 ? low bracket

In plain terms, what class is Cc1cccnc1CNC(=O)N1C(=O)O[C@H](c2cc(C(F)(F)F)cc(C(F)(F)F)c2)[C@@H]1C ? high bracket

In plain terms, what class is C[C@H]1[C@@H](c2cc(Br)cc(C(F)(F)F)c2)OC(=O)N1C(=O)CCc1cncc2ccccc12 ? middle bracket

In plain terms, what class is C[C@H]1[C@@H](c2cc(F)cc(C(F)(F)F)c2)OC(=O)N1C(=O)NCc1ccccc1Cl ? low bracket

In plain terms, what class is O=C(CCc1cncc2ccccc12)N1CC(c2cccc(F)c2F)OC1=O (stereo not drawn) ? high bracket

In plain terms, what class is C[C@H]1[C@@H](c2cc(F)cc(C(F)(F)F)c2)OC(=O)N1C(=O)NCc1cccc2c1OCCO2 ? low bracket

In plain terms, what class is C[C@H]1[C@@H](c2cc(F)cc(C(F)(F)F)c2)OC(=O)N1C(=O)NCc1cccc(N(C)C)c1 ? low bracket

In plain terms, what class is COc1cccnc1CNC(=O)N1C(=O)O[C@H](c2cc(C(F)(F)F)cc(C(F)(F)F)c2)[C@@H]1C ? high bracket

In plain terms, what class is C[C@H]1[C@@H](c2cc(F)cc(C(F)(F)F)c2)OC(=O)N1C(=O)NCc1cccc2cncnc12 ? middle bracket

In plain terms, what class is COc1ccccc1CNC(=O)N1C(=O)O[C@H](c2cccc(C(F)(F)F)c2)[C@@H]1C ? middle bracket

In plain terms, what class is O=C(NCc1cncc2cccnc12)N1C(=O)O[C@H](c2cc(C(F)(F)F)cc(C(F)(F)F)c2)[C@@H]1CO ? low bracket
